Entries and their measured AC50 follow.
TESTED ON: POLγA:A467T (Homo sapiens, UniProt P54098, A467T)
Sequence (P54098 whole entry A467T): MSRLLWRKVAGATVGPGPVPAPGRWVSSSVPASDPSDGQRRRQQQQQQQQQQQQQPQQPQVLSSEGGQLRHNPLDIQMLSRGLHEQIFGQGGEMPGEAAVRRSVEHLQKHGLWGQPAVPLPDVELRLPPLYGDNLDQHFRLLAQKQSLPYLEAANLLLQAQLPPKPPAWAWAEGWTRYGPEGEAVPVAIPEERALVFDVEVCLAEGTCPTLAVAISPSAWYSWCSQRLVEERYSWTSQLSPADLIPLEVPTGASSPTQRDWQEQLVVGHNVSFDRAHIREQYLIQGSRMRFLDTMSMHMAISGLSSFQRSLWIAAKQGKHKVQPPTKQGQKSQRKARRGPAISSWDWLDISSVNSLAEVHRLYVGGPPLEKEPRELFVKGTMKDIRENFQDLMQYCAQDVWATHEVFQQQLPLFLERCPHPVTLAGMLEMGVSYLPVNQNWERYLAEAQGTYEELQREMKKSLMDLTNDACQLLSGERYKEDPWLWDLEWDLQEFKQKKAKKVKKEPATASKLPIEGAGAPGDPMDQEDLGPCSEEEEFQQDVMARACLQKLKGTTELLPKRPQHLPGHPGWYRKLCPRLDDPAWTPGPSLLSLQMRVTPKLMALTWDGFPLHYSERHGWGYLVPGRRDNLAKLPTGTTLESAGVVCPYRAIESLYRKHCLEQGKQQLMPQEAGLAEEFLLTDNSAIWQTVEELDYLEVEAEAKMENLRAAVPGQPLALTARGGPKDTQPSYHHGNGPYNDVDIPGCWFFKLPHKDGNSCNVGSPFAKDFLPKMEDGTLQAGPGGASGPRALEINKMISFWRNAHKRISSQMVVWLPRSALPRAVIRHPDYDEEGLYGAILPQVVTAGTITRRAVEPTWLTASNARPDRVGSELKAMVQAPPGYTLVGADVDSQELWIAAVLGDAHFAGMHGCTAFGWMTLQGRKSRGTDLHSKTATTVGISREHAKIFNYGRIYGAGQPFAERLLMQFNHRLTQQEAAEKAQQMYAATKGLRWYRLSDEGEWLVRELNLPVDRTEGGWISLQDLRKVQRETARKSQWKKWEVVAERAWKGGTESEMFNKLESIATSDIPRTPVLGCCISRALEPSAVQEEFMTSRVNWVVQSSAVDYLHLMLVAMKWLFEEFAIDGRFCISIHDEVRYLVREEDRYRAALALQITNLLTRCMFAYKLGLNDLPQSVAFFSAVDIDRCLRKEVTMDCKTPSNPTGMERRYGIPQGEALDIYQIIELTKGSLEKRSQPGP
Sequence (Q9UHN1 whole entry partner): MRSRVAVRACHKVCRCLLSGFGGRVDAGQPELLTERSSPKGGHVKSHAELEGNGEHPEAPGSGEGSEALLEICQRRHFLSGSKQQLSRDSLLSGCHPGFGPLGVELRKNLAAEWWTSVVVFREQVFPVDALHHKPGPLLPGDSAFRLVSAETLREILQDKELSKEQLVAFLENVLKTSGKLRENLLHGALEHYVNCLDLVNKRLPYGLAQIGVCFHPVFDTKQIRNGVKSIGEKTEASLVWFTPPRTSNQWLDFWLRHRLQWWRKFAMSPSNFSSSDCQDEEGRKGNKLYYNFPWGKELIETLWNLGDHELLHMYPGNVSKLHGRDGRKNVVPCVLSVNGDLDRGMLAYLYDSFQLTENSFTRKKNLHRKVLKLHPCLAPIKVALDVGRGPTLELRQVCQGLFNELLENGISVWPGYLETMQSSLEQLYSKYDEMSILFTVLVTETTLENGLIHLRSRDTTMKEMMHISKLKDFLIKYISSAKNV
PROTOCOL DESCRIPTION: DNA polymerization assay, POLγA:A467T mutant
Assay type: biochemical
TEST CONDITIONS: stimulation of polymerase activity, primed M13mp18 ssDNA, 37° C. 2 hours; read-out: A467T AC50

Use these answered entries as a reference point.
{"STRUCTURE NOTATION": "O=S(=O)(Nc1csc(-c2ccccc2)n1)c1ccccc1", "VALUE OBSERVED": "> 100 µM"}
{"STRUCTURE NOTATION": "Cc1cc(S(=O)(=O)Nc2cccc(C(=O)N(C)CCO)c2)c(C)cc1Cl", "VALUE OBSERVED": "> 100 µM"}
{"STRUCTURE NOTATION": "Cc1cc(S(=O)(=O)N[C@@H]2CCCN(c3ccccc3)C2)c(C)cc1Cl", "VALUE OBSERVED": "> 100 µM"}
{"STRUCTURE NOTATION": "Cc1cc(S(=O)(=O)Nc2csc(C(=O)N(CC(N)=O)C3CCCC3)n2)c(C)cc1Cl", "VALUE OBSERVED": "> 100 µM"}
{"STRUCTURE NOTATION": "Cc1nc2ccc(NS(=O)(=O)c3cc(C)c(Cl)cc3C)cc2s1", "VALUE OBSERVED": "16 µM"}

Here's the next entry for you.
Query: Please report the measured AC50 for Cc1cnc(-c2cccc(NS(=O)(=O)c3cc(C)c(Cl)cc3C)c2)s1
Result: 3 µM
